Assay: log P by HPLC on reversed-phase columns (EEC directive 79/831 Annex V.A8)
Assay type: physicochemical
Details: pH 2.7, HPLC/MS, minor diastereoisomer of the mixture; read-out: log P(HCOOH)
result-type: chromatographic logP
// print number alone

Input line: Entry CC(=Cc1ccccc1Cl)c1ccc(F)cc1F has what chromatographic logP?
Output line: 5.34

----------
Experiment: log P by HPLC on reversed-phase columns (EEC directive 79/831 Annex V.A8)
Assay type: physicochemical
Conditions: pH 2.7
Marks after values point to notes of the source that are not given here.
result-type: logP

Input line: Item under review: Fc1cc(Cl)ccc1C1(Cn2ccnc2I)OC1c1ccccc1Cl (stereo not drawn) [Example 11] . Reported logP?
Output line: 3.7^[a]

Input line: Entry to check: OC(Cc1ccccc1F)(Cn1ccnc1I)C1(Cl)CC1 (stereo not drawn) [Example 2]
Output line: 2.05

Input line: // next record Fc1ccc(C2(Cn3ccnc3I)OC2c2ccccc2Cl)cc1 (stereo not drawn) [Example 8]
Output line: 3.09^[a]

Input line: For OC(Cc1c(Cl)cccc1I)(Cn1ccnc1I)C1(Cl)CC1 (stereo not drawn) [Example 18] then?
Output line: 3.04

Input line: Check OC(Cn1ccnc1I)(c1ccc(Cl)cc1)C1(Oc2ccc(F)cc2)CC1 (stereo not drawn) [Example 3] too.
Output line: 2.55

Input line: Also, Fc1ccc(C2(Cn3ccnc3I)OC2c2ccccc2Cl)cc1 (stereo not drawn) [Example 7] please.
Output line: 2.73^[a]

Input line: Now the molecule Fc1ccc(C2(Cn3ccnc3I)OC2c2ccccc2Cl)c(Cl)c1 (stereo not drawn) [Example 16]
Output line: 3.13^[a]

Input line: Subsequent entry: Fc1cc(Cl)ccc1C1(Cn2ccnc2I)OC1c1ccccc1Cl (stereo not drawn) [Example 10]
Output line: 3.23^[a]

Input line: Next: Fc1ccc(C2(Cn3ccnc3I)OC2c2ccccc2Cl)c(Cl)c1 (stereo not drawn) [Example 17]
Output line: 3.68^[a]

----------
Kindly state Efficacy % for each of the entries shown.
System: Uromyces appendiculatus
Assay: Example W: preventative in vivo test with Uromyces appendiculatus (bean rust)
Details: 500 ppm, evaluation 10 days after inoculation
Write down the numeric answer in % and omit the unit.

Input line: For the compound Fc1cc(Cl)ccc1C1(Cn2ccnc2I)OC1c1ccccc1Cl (mixture of isomers) [Example 9] , what Efficacy % is on record?
Output line: 93

Input line: Further, for Fc1ccc(C2(Cn3ccnc3I)OC2c2ccccc2Cl)cc1 (stereo not shown) ?
Output line: 100

Input line: And then Fc1ccc(C2(Cn3ccnc3I)OC2c2ccccc2Cl)c(Cl)c1 (mixture of isomers) [Example 15] , what is it?
Output line: 100

Input line: Now the same for Fc1ccc([C@]2(Cn3ccnc3I)O[C@H]2c2ccccc2Cl)c(F)c1 (relative stereo)
Output line: 100

----------
Assay: log P by HPLC on reversed-phase columns (EEC directive 79/831 Annex V.A8)
Assay type: physicochemical
Conditions: pH 7.8, logP
Description: The log P values were measured according to EEC directive 79/831 Annex V.A8 by HPLC (High Performance Liquid Chromatography) on reversed-phase columns, using the methods below: […] Calibration was carried out using unbranched alkan-2-ones (having from 3 to 16 carbon atoms) with known log P values (the log P values were determined by the retention times using linear interpolation between two successive alkanones). […]
result-type: chromatographic logP
Just the number, please.

Input line: What value of chromatographic logP has been recorded for this entry: OC(Cc1ccccc1Cl)(Cn1ccnc1I)C1(Cl)CC1 (stereo not shown)
Output line: 3.38

----------
I'd appreciate it if you could supply chromatographic logP values for the items below.
Test: log P by HPLC on reversed-phase columns (EEC directive 79/831 Annex V.A8)
Assay type: physicochemical
Details: pH 2.7, log P(HCOOH)
In your answer, state the number alone without any accompanying words.

Input line: Fill in: chromatographic logP of Fc1ccc(C(=Cc2ccccc2Cl)CBr)c(F)c1 is ___
Output line: 4.8

Input line: Check Fc1ccc([C@]2(Cn3ccnc3I)O[C@@H]2c2ccccc2Cl)c(F)c1 (relative stereo) too.
Output line: 2.86

Input line: And then Fc1ccc(C2(Cn3ccnc3I)OC2c2ccccc2Cl)c(F)c1 (centres unmarked) , what is it?
Output line: 2.92

Input line: Moving on to the next molecule: Fc1ccc([C@]2(Cn3ccnc3I)O[C@H]2c2ccccc2Cl)c(F)c1 (relative stereo)
Output line: 3.23

Input line: Same question for Fc1ccc(C2(CBr)OC2c2ccccc2Cl)c(F)c1 (centres unmarked) please.
Output line: 4.61

----------
Assay: log P by HPLC on reversed-phase columns (EEC directive 79/831 Annex V.A8)
Type: physicochemical
Conditions: pH 2.7, HPLC/MS, major diastereoisomer of the mixture; read-out: log P(HCOOH)
result-type: chromatographic logP
# output: bare number, no unit

Input line: Bench note: what chromatographic logP did CC(=Cc1ccccc1Cl)c1ccc(F)cc1F show?
Output line: 5.05

----------
System: Uromyces appendiculatus
Experiment: Example W: preventative in vivo test with Uromyces appendiculatus (bean rust)
Conditions: 500 ppm, evaluation 10 days after inoculation
result-type: Efficacy % (%)
Lab book: enter the figure in %, no units written.

Input line: Form field: reported Efficacy % of OC(Cc1ccccc1Cl)(Cn1ccnc1I)C1(Cl)CC1 (centres unmarked)
Output line: 100

Input line: One more molecule: OC(Cc1c(Cl)cccc1I)(Cn1ccnc1I)C1(Cl)CC1 (centres unmarked)
Output line: 100

Input line: Okay, and Fc1ccc(C2(Cn3ccnc3I)OC2c2ccccc2Cl)c(F)c1 (centres unmarked) ?
Output line: 99

Input line: And then Fc1cc(Cl)ccc1C1(Cn2ccnc2I)OC1c1ccccc1Cl (centres unmarked) [Example 11] , what is it?
Output line: 97

Input line: Try this molecule next: Fc1ccc(C2(Cn3ccnc3I)OC2c2ccccc2Cl)c(Cl)c1 (centres unmarked) [Example 17]
Output line: 100

----------
Give chromatographic logP for every item shown.
Assay: log P by HPLC on reversed-phase columns (EEC directive 79/831 Annex V.A8)
Format: physicochemical
Conditions: pH 2.7, logP
A bare number is all that is needed in reply.

Input line: I'd like to know its chromatographic logP. The molecule in question is Fc1ccc([C@]2(Cn3ccnc3I)O[C@@H]2c2ccccc2Cl)c(F)c1 (relative stereo)
Output line: 2.86

Input line: Check Fc1ccc([C@]2(Cn3ccnc3I)O[C@H]2c2ccccc2Cl)c(F)c1 (relative stereo) too.
Output line: 3.23

Input line: Queued: Fc1ccc(C2(Cn3ccnc3I)OC2c2ccccc2Cl)c(F)c1 (stereo not shown)
Output line: 2.92

Input line: What about OC(Cc1ccccc1Cl)(Cn1ccnc1I)C1(Cl)CC1 (stereo not shown) ?
Output line: 2.35
